ASSAYED SYSTEM: CDK2/cyclinE (Homo sapiens, UniProt P24941)
TEST PROTOCOL: Caliper LabChip kinase enzymatic assay, CDK2/cyclinE
Type: biochemical
CONDITION DETAILS: enzyme 0.22 nM, (at the Km for ATP), one hour; 12-point dose response; compounds as HCl salts; read-out: CDK2/cyclinE IC50
ASSAY READOUT: IC50

chemical_structure=O=C1NCCn2c1cc1cnc(Nc3ccc(N4CCNCC4)cn3)nc12 assayed_system="CDK2/cyclinE (Homo sapiens, UniProt P24941)" value="> 100 µM"

* * *

ASSAYED SYSTEM: CDK2/cyclinE (Homo sapiens, UniProt P24941)
TEST PROTOCOL: Caliper LabChip kinase enzymatic assay, CDK2/cyclinE
Type: biochemical
CONDITION DETAILS: Table 2, class symbols; read-out: CDK2/CycE IC50
Listing of recorded IC50 by entry.
ASSAY READOUT: IC50

compound=O=C1NCC2(CCCC2)n2c1cc1cnc(Nc3ccc(N4CCNCC4)cn3)nc12 value="1000 to 100000 nM"
compound=O=C1NC[C@H](c2ccccc2)n2c1cc1cnc(Nc3ccc(N4CCNCC4)cn3)nc12 value="100 to 1000 nM"
compound=CC(C)(C)[C@H]1CNC(=O)c2cc3cnc(Nc4ccc(N5CCNCC5)cn4)nc3n21 value="100 to 1000 nM"
compound="CC1CN(c2ccc(Nc3ncc4cc5n(c4n3)C3(CCCC3)CNC5=O)nc2)CC(C)O1 (centres unmarked)" value="1000 to 100000 nM"
compound=CC(C)C[C@H]1CNC(=O)c2cc3cnc(Nc4ccc(N5CCN(C)CC5)cn4)nc3n21 value="1000 to 100000 nM"
compound=CC(C)[C@@H]1CNC(=O)c2cc3cnc(Nc4ccc(N5CCNCC5)cn4)nc3n21 value="1000 to 100000 nM"
compound="CCC(C)[C@H]1CNC(=O)c2cc3cnc(Nc4ccc(N5CCNCC5)cn4)nc3n21 (some centres unmarked)" value="1000 to 100000 nM"
compound=O=C1NCC2(CCCC2)n2c1cc1cnc(Nc3ccc(N4CCCCC4)cn3)nc12 value="1000 to 100000 nM"
